run-description: Clearance in CD-1 mouse hepatocytes at 1 uM up to 3 hrs by LC-MS/MS analysis
Type: ADME, cell-based, Hepatocyte
reported-endpoint: CLhep predicted at 1 µM (mL/min/kg)

Check out these entries, answers already filled in.
compound="O=C(Nc1ccc(S(=O)(=O)c2cccc(OC(F)(F)F)c2)cc1)[C@@H]1C[C@H]1c1cccnc1 (racemic)" result=49
compound="CCCn1cc(S(=O)(=O)c2ccc(NC(=O)[C@@H]3C[C@H]3c3cccnc3)cc2)cn1 (racemic)" result=59
compound="O=C(Nc1ccc(S(=O)(=O)c2ccccc2)cc1)[C@@H]1C[C@H]1c1cccnc1 (racemic)" result=63
compound=CC(C)n1cc(S(=O)(=O)c2ccc(NC(=O)[C@H]3C[C@@H]3c3cccnc3)cc2)cn1 result=76
compound="CS(=O)(=O)c1cccc(S(=O)(=O)c2ccc(NC(=O)[C@@H]3C[C@H]3c3cccnc3)cc2)c1 (racemic)" result=54
compound="O=C(Nc1ccc(S(=O)(=O)c2ccccc2)cc1)[C@H]1C[C@@H]1c1cccnc1 (single isomer, unassigned; enantiomer 1)" result=78
compound="CC(C)n1cc(S(=O)(=O)c2ccc(NC(=O)[C@@H]3C[C@H]3c3cccnc3)cc2)cn1 (racemic)" result=60

(1) CCCn1cc(S(=O)(=O)c2ccc(NC(=O)[C@H]3C[C@@H]3c3cccnc3)cc2)cn1
(2) O=C(Nc1ccc(S(=O)(=O)c2cnn(C3CCOCC3)c2)cc1)[C@@H]1C[C@H]1c1cccnc1 (racemic)
Which value of CLhep predicted at 1 µM is smaller, the one for 1 or the one for 2 ? Could you answer with the label of the item you picked? 2

====

run-description: Clearance in human liver microsomes at 1 uM up to 60 mins by LC-MS/MS analysis
Assay type: ADME
reported-endpoint: CLhep predicted at 1 µM (L/h/kg)

Check out these entries, answers already filled in.
molecule="Nc1ccc([C@@H]2C[C@H]2C(=O)NCc2ccc(S(=O)(=O)c3ccccc3)cc2)cn1 (racemic)" result=0.54
molecule="O=C(Nc1ccc(S(=O)(=O)c2ccccc2)cc1)[C@@H]1C[C@H]1c1ccncc1 (racemic)" result=0.54
molecule="O=C(Nc1ccc(S(=O)(=O)c2cnn(C3CCOCC3)c2)cc1)[C@@H]1C[C@H]1c1cccnc1 (racemic)" result=0.9
molecule=CCCn1cc(S(=O)(=O)c2ccc(NC(=O)[C@H]3C[C@@H]3c3cccnc3)cc2)cn1 result=0.78

(I) CCCn1cc(S(=O)(=O)c2ccc(NC(=O)[C@@H]3C[C@H]3c3cccnc3)cc2)cn1 (racemic)
(II) Nc1ccc([C@@H]2C[C@H]2C(=O)Nc2ccc(S(=O)(=O)c3ccccc3)cc2)cn1 (racemic)
(III) CC(C)(O)Cn1cc(S(=O)(=O)c2ccc(NC(=O)[C@@H]3C[C@H]3c3cccnc3)cc2)cn1 (racemic)
# rank_down: sort by CLhep predicted at 1 µM, max first Your answer should be the labels, listed in the requested order. I, II, III
(I: 0.72 L/h/kg, II: 0.36 L/h/kg, III: 0.18 L/h/kg)

====

run-description: in vitro
particulars: dog, MDCK
reported-endpoint: Papp A→B at 10 µM (×10⁻⁶ cm/s)

Check out these entries, answers already filled in.
molecule="CS(=O)(=O)c1cccc(S(=O)(=O)c2ccc(NC(=O)[C@@H]3C[C@H]3c3cccnc3)cc2)c1 (racemic)" result=2.7
molecule=CC(C)n1cc(S(=O)(=O)c2ccc(NC(=O)[C@H]3C[C@@H]3c3cccnc3)cc2)cn1 result=9.7
molecule=CCCn1cc(S(=O)(=O)c2ccc(NC(=O)[C@H]3C[C@@H]3c3cccnc3)cc2)cn1 result=7.1

(1) O=C(Nc1ccc(S(=O)(=O)c2cccc(OC(F)(F)F)c2)cc1)[C@@H]1C[C@H]1c1cccnc1 (racemic)
(2) O=C(Nc1ccc(S(=O)(=O)c2ccccc2)cc1)[C@H]1C[C@@H]1c1cccnc1 (single isomer, unassigned; enantiomer 1)
(3) O=S1(=O)NC(NCc2ccc(S(=O)(=O)N3CCC(N4CCCC4)CC3)cc2)=Nc2ccncc21
# rank_down: sort by Papp A→B at 10 µM, max first Your answer should be the labels, listed in the requested order. 2, 1, 3
(2: 21.2 ×10⁻⁶ cm/s, 1: 7.4 ×10⁻⁶ cm/s, 3: 0.1 ×10⁻⁶ cm/s)

====

run-description: in vitro
particulars: dog, MDCK
reported-endpoint: Papp A→B at 10 µM (×10⁻⁶ cm/s)

molecule=O=S1(=O)N=C(NCc2ccc(S(=O)(=O)c3ccccc3)cc2)Nc2ccncc21 result=0.8
molecule="CC(C)n1cc(S(=O)(=O)c2ccc(NC(=O)[C@@H]3C[C@H]3c3cccnc3)cc2)cn1 (racemic)" result=10

(P) O=C(Nc1ccc(S(=O)(=O)c2ccccc2)cc1)[C@@H]1C[C@H]1c1cccnc1 (racemic)
(Q) CCCn1cc(S(=O)(=O)c2ccc(NC(=O)[C@@H]3C[C@H]3c3cccnc3)cc2)cn1 (racemic)
Which value of Papp A→B at 10 µM is smaller, the one for P or the one for Q ? Could you answer with the label of the item you picked? Q
(Q: 11.5 ×10⁻⁶ cm/s, P: 24 ×10⁻⁶ cm/s)

====

run-description: Clearance in human liver microsomes at 1 uM up to 60 mins by LC-MS/MS analysis
Assay type: ADME
reported-endpoint: CLhep predicted at 1 µM (mL/min/kg)

Check out these entries, answers already filled in.
molecule="O=C(Nc1ccc(S(=O)(=O)c2cc(F)cc(F)c2)cc1)[C@@H]1C[C@H]1c1cccnc1 (racemic)" reported_endpoint="CLhep predicted at 1 µM" result=12
molecule="O=C(NCCCCC1CCN(C(=O)c2ccccc2)CC1)[C@@H]1C[C@H]1c1cccnc1 (racemic)" reported_endpoint="CLhep predicted at 1 µM" result=19
molecule="O=C(Nc1ccc(S(=O)(=O)c2ccccc2)cc1)[C@H]1C[C@@H]1c1cccnc1 (single isomer, unassigned; enantiomer 1)" reported_endpoint="CLhep predicted at 1 µM" result=11

(A) CC(C)n1cc(S(=O)(=O)c2ccc(NC(=O)[C@H]3C[C@@H]3c3cccnc3)cc2)cn1
(B) O=S1(=O)N=C(NCc2ccc(S(=O)(=O)c3ccccc3)cc2)Nc2ccncc21
Sort A and B by CLhep predicted at 1 µM descending and give the first. Could you answer with the label of the item you picked? A
(A: 11 mL/min/kg, B: 6 mL/min/kg)

(1) O=S1(=O)NC(NCc2ccc(S(=O)(=O)N3CCC(N4CCCC4)CC3)cc2)=Nc2ccncc21
(2) O=C(Nc1ccc(S(=O)(=O)N2CC3CCC(C2)O3)cc1)[C@@H]1C[C@H]1c1cccnc1 (mixture of isomers)
Which value of CLhep predicted at 1 µM is smaller, the one for 1 or the one for 2 ? Could you answer with the label of the item you picked? 1
(1: 8 mL/min/kg, 2: 16 mL/min/kg)

(1) CC(C)(C)OC(=O)N1CC2(CCN(C(=O)[C@H]3C[C@@H]3c3cccnc3)C2)C1 (relative stereo)
(2) CC(C)(C)OC(=O)N1C[C@H]2CCN(C(=O)[C@@H]3C[C@H]3c3cccnc3)[C@H]2C1 (racemic)
Which value of CLhep predicted at 1 µM is smaller, the one for 1 or the one for 2 ? Could you answer with the label of the item you picked? 1

(1) O=C(NCc1ccc(S(=O)(=O)c2ccccc2)cc1)[C@@H]1C[C@H]1c1ccncc1 (racemic)
(2) O=C(NCc1ccc(S(=O)(=O)c2ccccc2)cc1)[C@@H]1C[C@H]1c1cccnc1 (racemic)
Sort 1 and 2 by CLhep predicted at 1 µM descending and give the first. Could you answer with the label of the item you picked? 2

====

run-description: Clearance in CD-1 mouse liver microsomes at 1 uM up to 60 mins by LC-MS/MS analysis
Type: ADME, Microsome
reported-endpoint: CLhep predicted at 1 µM (mL/min/kg)

molecule="O=C(Nc1ccc(S(=O)(=O)c2cccc(OC(F)(F)F)c2)cc1)[C@@H]1C[C@H]1c1cccnc1 (racemic)" reading_unit=mL/min/kg result=69
molecule="O=C(Nc1ccc(S(=O)(=O)c2ccccc2)cc1)[C@@H]1C[C@H]1c1cccnc1 (racemic)" reading_unit=mL/min/kg result=76
molecule="O=C(Nc1ccc(S(=O)(=O)c2ccccc2)cc1)[C@H]1C[C@@H]1c1cccnc1 (single isomer, unassigned; enantiomer 1)" reading_unit=mL/min/kg result=79
molecule="CC(C)n1cc(S(=O)(=O)c2ccc(NC(=O)[C@@H]3C[C@H]3c3cccnc3)cc2)cn1 (racemic)" reading_unit=mL/min/kg result=75
molecule="CCCn1cc(S(=O)(=O)c2ccc(NC(=O)[C@@H]3C[C@H]3c3cccnc3)cc2)cn1 (racemic)" reading_unit=mL/min/kg result=75
molecule=CCCn1cc(S(=O)(=O)c2ccc(NC(=O)[C@H]3C[C@@H]3c3cccnc3)cc2)cn1 reading_unit=mL/min/kg result=79
molecule="CS(=O)(=O)c1cccc(S(=O)(=O)c2ccc(NC(=O)[C@@H]3C[C@H]3c3cccnc3)cc2)c1 (racemic)" reading_unit=mL/min/kg result=74
molecule=CC(C)n1cc(S(=O)(=O)c2ccc(NC(=O)[C@H]3C[C@@H]3c3cccnc3)cc2)cn1 reading_unit=mL/min/kg result=80
molecule="O=C(Nc1ccc(S(=O)(=O)c2cnn(C3CCOCC3)c2)cc1)[C@@H]1C[C@H]1c1cccnc1 (racemic)" reading_unit=mL/min/kg result=77
